# tested target: T1, 4-1BB (CD137), antigen of the Octet kinetics (UniProt Q07011 24-186, limits assumed)
# T1 construct: also called TNFRSF9
# method summary: Octet (BLI), mono-valent binding kinetics
measurement kind: kon (M⁻¹ s⁻¹)
All answers are understood in M⁻¹ s⁻¹, so give the number only.

Input line: Return reported kon; argument: huG28.21.G2.4.4 (antibody, human IgG2, kappa, V domains shown, also called huG28.21.4.4) VH: EVQLQQSGAEVKKPGATVKLSCKASGFNIKDYYIHWVNQRPGQGLEWIGRIDPEDGDIAYAPKFQDRATLTVDTSTNTAYLELSSLRSEDTAVYYCTTGNYYAMDFWGQGTTVTVSS VL: QIVLTQSPATLSASPGERVTLSCTASSSVSSSYLHWYQQKPGSSPKLWIYSTSNLASGVPARFSGSGPGTSYTLTISSMEPEDAATYYCHQYHRSPPTFGQGTKLEIKR
Output line: 449000

Input line: Return reported kon; argument: cAB 137QL.G28.21.G2 (antibody, human IgG2, V domains shown, Chimeric antibody; also called Chimeric G28.21; cAb G28.21.G2) VH: EVQLQQSGAELVRPGASVKLSCTASGFNIKDYYIHWVNQRPEQGLEWIGRIDPEDGDIAYAPKFQDKATLTVDTSSNTAYLHIIGLTSEDTAVYYCTTGNYYAMDFWGQGTSVTVSS VL: QIVLTQSPAIMSASLGERVTMTCTASSSVSSSYLHWYQQKPGSSPKLWIYSTSNLASGVPARFSGSGSGTSYSLTISSMEAEDAATYYCHQYHRSPPTFGSGTKLEIK
Output line: 373000

Input line: Return reported kon; argument: huF1.1.G2.2.4 (antibody, human IgG2, kappa, V domains shown, also called huF1.1.2.4) VH: QVQLVQSGAEVKKPGASVKVSCKASGYTFTFYTMHWLRQAPGQGLEWIGYINPSSGYTNYNQKFTDRATLTADTSTSTAYMELSSLRSEDTAVYYCARSDGSSSKWYFDVWGQGTTVTVSS VL: EIVLTQSPDFQSATPKEKVTITCRASSSVSYIHWYQQKPGSSPKAWISATSNLASGVPSRFSGSGSGTSYTLTINRVEAEDAATYYCQQWSSNPFTFGQGTKLEIKR
Output line: 138000

Input line: Return reported kon; argument: huF1.1.G2.4.4 (antibody, human IgG2, kappa, V domains shown, also called huF1.1.4.4) VH: QVQLVQSGAEVKKPGASVKMSCKASGYTFTFYTMHWLKQAPGQGLEWIGYINPSSGYTNYNQKFTDRATLTADKSTSTAYMELSSLRSEDTAVYYCARSDGSSSKWYFDVWGQGTTVTVSS VL: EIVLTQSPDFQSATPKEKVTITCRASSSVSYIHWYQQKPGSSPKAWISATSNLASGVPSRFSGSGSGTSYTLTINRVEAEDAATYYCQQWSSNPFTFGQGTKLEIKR
Output line: 153000

Input line: Return reported kon; argument: cAb 137QL.F1.1.G2 (antibody, human IgG2, V domains shown, Chimeric antibody; also called Chimeric F1.1; cAb F1.1.G2) VH: QVQLQQSGAELARPGASVKMSCKASGYTFTFYTMHWLKQRPGQGLEWIGYINPSSGYTNYNQKFTDKATLTADKSSSTAYMQLSSLTSEDSAVYYCARSDGSSSKWYFDVWGTGTTVTVSS VL: QIVLSQSPTILSASPGEKVTMTCRASSSVSYIHWYQQKPGSSPKAWISATSNLASGVPARFSGSGSGTSYSLTISRVEAEDAATYYCQQWSSNPFTFGSGTKLEIK
Output line: 138000

Input line: Return reported kon; argument: huG28.21.G2.1.4 (antibody, human IgG2, kappa, V domains shown, also called huG28.21.1.4) VH: EVQLVQSGAEVKKPGATVKISCKASGFNIKDYYIHWVNQAPGKGLEWIGRIDPEDGDIAYAPKFQDRVTLTVDTSTDTAYLELSSLRSEDTAVYYCTTGNYYAMDFWGQGTTVTVSS VL: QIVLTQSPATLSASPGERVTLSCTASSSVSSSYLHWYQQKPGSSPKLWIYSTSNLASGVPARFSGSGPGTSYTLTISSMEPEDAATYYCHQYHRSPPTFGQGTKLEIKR
Output line: 426000
